Listed compounds paired with reported Inhibitory rate of inward INa—Ca (%)
# Tested Target: Na^+/Ca^2+ exchanger (Cavia porcellus)
# Construct: endogenous in cells; host or cells: freshly isolated guinea pig ventricular myocytes
# Protocol Description: Na^+/Ca^2+ exchange current (INa—Ca), whole-cell patch clamp, intracellular Na^+ overload cell model
# Format: cell-based, guinea pig
# Set-up: concentration or dose not given beside the values
# Condition Summary: screening of 22 candidate compounds
The answer is to be given in %; state only the numeric part.

Solved entries (count: 4):
>  <Compound>
O=c1c2cc(Cl)ccc2[se]n1-c1ccccc1 [IMM-131]

>  <Inhibitory rate of inward INa—Ca (%)>
15

$$$$
>  <Compound>
C/C(=N\O)c1ccc(-n2[se]c3ccccc3c2=O)cc1 [IMM-065]

>  <Inhibitory rate of inward INa—Ca (%)>
43

$$$$
>  <Compound>
O=c1c2cc(O)ccc2[se]n1-c1ccccc1 [IMM-164]

>  <Inhibitory rate of inward INa—Ca (%)>
22

$$$$
>  <Compound>
O=c1c2cc(Cl)ccc2[se]n1-c1ccccn1 [IMM-004]

>  <Inhibitory rate of inward INa—Ca (%)>
44

$$$$

Query block: Fill in the blank: the reported Inhibitory rate of inward INa—Ca (%) of O=c1c2ccc(Cl)cc2[se]n1-c1cccnc1 [IMM-141] is ____.
Result block: 2
